FYI, the data here is from paper PMC9482650.

Target: T1, LIN7C, Q9NUP9
T1 sequence (Q9NUP9 88-185, limits assumed, looked up): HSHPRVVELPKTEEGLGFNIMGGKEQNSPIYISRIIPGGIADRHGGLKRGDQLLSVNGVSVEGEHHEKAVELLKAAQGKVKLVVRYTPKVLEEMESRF
Experiment: holdup assay
Set-up: key: below the threshold = too weak to quantify, mostly under pKd 3.1 to 4
Settings: plain residues with an end cap or a label only (N-terminal biotin on a linker: ado-ado)
measured endpoint: pKd

Example results:
{"binder": "GVHSNDHSVV [LPAR1, Q92633]", "recorded result": "below the threshold"}
{"binder": "KAEEKPPSKV [SCN4B, Q8IWT1]", "recorded result": "below the threshold"}
{"binder": "SGDGKTSVWI [GJC1, P36383]", "recorded result": "below the threshold"}
{"binder": "PLATCDETSI [SEMA4F, O95754]", "recorded result": "below the threshold"}
{"binder": "DSEEELPTRL [GRK6, P43250]", "recorded result": "below the threshold"}

Consider now this further binder.
q: Retrieve pKd measured for HYPASPDSWV [CTNND2, Q9UQB3] and print it.
a: below the threshold
